Numbers sourced from the supplement of paper PMC11061612.

system: RH-1 (Ewing's Sarcoma); experiment: Bliss excess, mean over the matrix (fraction); higher = more synergy;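 further: after 72 h of two-drug dosing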
measured quantity: Bliss excess

CC(=O)c1c(C)c2cnc(Nc3ccc(N4CCNCC4)cn3)nc2n(C2CCCC2)c1=O [Palbociclib] + CN(CC[C@H](CSC1=CC=CC=C1)NC2=C(C=C(C=C2)S(=O)(=O)NC(=O)C3=CC=C(C=C3)N4CCC(CC4)[C@H](C5=CC=CC=C5C6=CC=C(C=C6)Cl)O)S(=O)(=O)C(F)(F)F)CCO [AZD4320] (first compound max 10 µM, 7x7, partner max 1 µM) = -0.0674
C=CCn1c(=O)c2cnc(Nc3ccc(N4CCN(C)CC4)cc3)nc2n1-c1cccc(C(C)(C)O)n1 [AZD1775] + C1CN(CCC1(C(=O)N[C@@H](CCO)C2=CC=C(C=C2)Cl)N)C3=NC=NC4=C3C=CN4 [Capivasertib] (first compound max 3 µM, partner max 3 µM) = -0.0509
